- experimental target: human TREX2 (residues M44-A279) (Homo sapiens)
- Construct: human TREX2 (residues M44-A279, expressed in E. coli); His-Tev (His tag with TEV protease site) (N)
- Sequence (Q9BQ50 44-279 isoform Q9BQ50-1): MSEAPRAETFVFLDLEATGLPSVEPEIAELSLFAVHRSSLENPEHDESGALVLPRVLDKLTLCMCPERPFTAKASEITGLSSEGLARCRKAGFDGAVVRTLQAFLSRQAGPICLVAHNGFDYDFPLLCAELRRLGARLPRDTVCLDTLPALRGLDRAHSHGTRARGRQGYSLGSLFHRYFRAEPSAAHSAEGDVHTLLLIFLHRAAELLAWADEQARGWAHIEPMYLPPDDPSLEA
- experiment: TREX2 Biochemical Assay (fluorescence assay, degradation of dsDNA substrate)
- experimental conditions: 2.5 nM TREX2, 60 nM dsDNA substrate, 25 minutes at room temperature; read-out: hTREX2 EC50
pEC50: −log10 of the molar value.
Quick reference: pEC50 of the listed items.

Task: For "O=C(c1ccc(F)c(Br)c1)N(Cc1cccnc1)Cc1ccc(Cl)cc1Cl" , what is its reported pEC50?
Result: < 4.00

Task: Input "CC[C@@H](c1cccc(Cl)c1OC)N(Cc1cnc(C(=O)O)c(N)c1)C(=O)c1cc(F)cc(F)c1"
Result: 4.00 to 5.00

Task: Input C[C@@H](c1ccc(C(N)=O)cc1Cl)N(Cc1cccnc1)C(=O)c1cccc(F)c1 (single isomer, unassigned)
Result: 4.00 to 5.00

Task: Input "O=C(O)CC[C@H](c1ccccc1Cl)N(Cc1cccnc1)C(=O)c1cc(F)cc(F)c1"
Result: 4.00 to 5.00

Task: Input "O=C(c1ccccc1)N(Cc1cccnc1)Cc1ccc(Cl)cc1Cl"
Result: < 4.00
